# Test system: SN12C renal
# experimental protocol: NCI tumour cell line growth inhibition, 48 h
reported property: TGI

A selection of reference data follows.
Item: CC1(O)CCC(C(C)(C)O)CC1 (configuration not stated) | TGI: > 100 µM

Please fill in: TGI reported for O=C(c1cccs1)N(C(=S)N1CCN(c2ccccc2)CC1)C1CCCCC1 = > 100 µM

Measured TGI of COC(=O)C#Cc1cccc(OC)c1OC : > 100 µM

Briefly, TGI measured for NC(=O)NN/C=C(/C=Nc1ccccc1)[N+](=O)[O-] : > 100 µM

Input S=C(Nc1ccccc1)Nc1ccccc1SC(/C=C/NNC1=NC(c2ccccc2)C(c2ccccc2)=NN1)c1ccccc1 (configuration not stated) . Output TGI: > 100 µM

Reported TGI ( N#Cc1c(Br)n(C2OC(CO)C(O)C2O)c2ncn3ccnc3c12 (configuration not stated) ) = > 100 µM

Memo: COc1ccc2nc3cccc([N+](=O)[O-])c3c(NCCNCCO)c2c1 , reported TGI: 0.306 µM

// TGI value for O=C(N/N=C(\CN1CCN(c2cc3[nH]cc(C(=O)O)c(=O)c3cc2F)CC1)c1ccc(Cl)cc1)c1ccncc1 : 61.8 µM

Continuing:
Note to self: TGI recorded for COC1(OC)CC(CO)(CNc2nc(N)nc(Cl)c2C=O)C1 was > 100 µM

// sample CCCN(CCC)c1ccc(CO)c(Cl)c1 , its TGI was > 100 µM

Short answer for Cc1ccc(NC(=O)SCCC(=O)O)cc1 : TGI was > 100 µM

The reported value for Cc1cc(Cc2cc(Cc3cc(C)cc(C(C)(C)C)c3O)c(C)cc2C)c(O)c(C(C)(C)C)c1 in terms of TGI is 31.7 µM

Item: COC(=O)C1=CN(CC2=CC(=O)C(C)=CC2=O)C=C(C(=O)OC)C1c1cc(OC)ccc1OC | TGI: 33.2 µM

For COc1cccc2c(Nc3ccc(S(=O)(=O)N=C(N)N)cc3)c3ccc([N+](=O)[O-])cc3nc12 the compound record lists TGI as > 100 µM

Notebook: CC1(C)NC(C)(C)/C(=N\O)C(=NO)/C1=N/O , TGI read as > 100 µM

Recorded TGI (compound CC1CC(=O)C2CC(CO)=CCCC2C1(C)CC/C(=C/CO)CO (configuration not stated) ): > 100 µM

Lab note: measured TGI of CN(C)CCCNCc1ccc(-c2ccc(F)c(Cl)c2)o1 was 26.6 µM

Briefly, TGI measured for C[Si](C)(c1ccccc1)C1CC(=O)CC(=O)C1 : > 100 µM

---

Listed here are compounds together with their documented TGI.
# Tested on: HCT-116 colon
# experimental protocol: NCI tumour cell line growth inhibition, 48 h

Study these solved cases before continuing.
The compound CC(=O)OC1CC2C(C)(C)C(=O)C=C[C@]2(C)C2CC[C@]3(C)C(OCC(=O)[C@H]3c3ccoc3)[C@]12C (some centres not stated) showed TGI equal to 11.4 µM

Measured TGI, COc1ccc(OC)c2[nH]c(Sc3c([N+](=O)[O-])ncn3C)nc12 : 51.6 µM

// field: TGI; key: CN/N=C(\C)c1c(O)cc(C)oc1=O ; value = > 100 µM

Sure, the documented TGI for CN(C)CCCNCc1ccc(-c2ccc(F)c(Cl)c2)o1 is 25 µM

Just so you know, measured TGI for CC(=O)OCCOCn1c2c(c(=O)[nH]c1=O)CCC2 came out at > 100 µM

Data point: COC(=O)C1=C(C)C(=O)[C@H]2C(C(=O)OC)CCCC[C@@H]12 (some centres not stated) ; TGI = > 100 µM

More entries:
Reported TGI for COC(=O)C#Cc1cccc(OC)c1OC was > 100 µM

The recorded TGI for entry Nn1c2c(c3ccccc3c1=O)C(=O)c1ccccc1-2 equals > 50 µM

Noted for CC(=O)N1CCC(Nc2cc(C(=O)NC[C@H](O)CN3CCc4ccccc4C3)ncn2)CC1 : its TGI reads > 100 µM

Measured TGI, NCCN.O=C([O-])C(=O)[O-].O=C([O-])C(=O)[O-].[Co+3].[K+] : > 100 µM

# TGI of O=c1[nH]c2[nH]c(-c3ccc(Br)cc3)cc2c2ccccc12 = > 100 µM

Summary for this compound, N#Cc1c(Br)n(C2OC(CO)C(O)C2O)c2ncn3ccnc3c12 (configuration not stated) : TGI is > 100 µM

The reported TGI of the compound COc1ccc(CCCNC(=O)Cc2cc(OC)c(OC)cc2CO)cc1OC was > 100 µM

The recorded TGI for COc1ccc(C(O)c2cc(OC)c(OC)c(OC)c2)cc1 (configuration not stated) is > 100 µM

get_value(item= NS(=O)(=O)c1nnc(NS(=O)(=O)c2ccc(F)cc2)s1 , readout=TGI) returns > 100 µM
